# target-desc: Ret(h) (Homo sapiens, UniProt P07949)
# Sequence (P07949 29-1114): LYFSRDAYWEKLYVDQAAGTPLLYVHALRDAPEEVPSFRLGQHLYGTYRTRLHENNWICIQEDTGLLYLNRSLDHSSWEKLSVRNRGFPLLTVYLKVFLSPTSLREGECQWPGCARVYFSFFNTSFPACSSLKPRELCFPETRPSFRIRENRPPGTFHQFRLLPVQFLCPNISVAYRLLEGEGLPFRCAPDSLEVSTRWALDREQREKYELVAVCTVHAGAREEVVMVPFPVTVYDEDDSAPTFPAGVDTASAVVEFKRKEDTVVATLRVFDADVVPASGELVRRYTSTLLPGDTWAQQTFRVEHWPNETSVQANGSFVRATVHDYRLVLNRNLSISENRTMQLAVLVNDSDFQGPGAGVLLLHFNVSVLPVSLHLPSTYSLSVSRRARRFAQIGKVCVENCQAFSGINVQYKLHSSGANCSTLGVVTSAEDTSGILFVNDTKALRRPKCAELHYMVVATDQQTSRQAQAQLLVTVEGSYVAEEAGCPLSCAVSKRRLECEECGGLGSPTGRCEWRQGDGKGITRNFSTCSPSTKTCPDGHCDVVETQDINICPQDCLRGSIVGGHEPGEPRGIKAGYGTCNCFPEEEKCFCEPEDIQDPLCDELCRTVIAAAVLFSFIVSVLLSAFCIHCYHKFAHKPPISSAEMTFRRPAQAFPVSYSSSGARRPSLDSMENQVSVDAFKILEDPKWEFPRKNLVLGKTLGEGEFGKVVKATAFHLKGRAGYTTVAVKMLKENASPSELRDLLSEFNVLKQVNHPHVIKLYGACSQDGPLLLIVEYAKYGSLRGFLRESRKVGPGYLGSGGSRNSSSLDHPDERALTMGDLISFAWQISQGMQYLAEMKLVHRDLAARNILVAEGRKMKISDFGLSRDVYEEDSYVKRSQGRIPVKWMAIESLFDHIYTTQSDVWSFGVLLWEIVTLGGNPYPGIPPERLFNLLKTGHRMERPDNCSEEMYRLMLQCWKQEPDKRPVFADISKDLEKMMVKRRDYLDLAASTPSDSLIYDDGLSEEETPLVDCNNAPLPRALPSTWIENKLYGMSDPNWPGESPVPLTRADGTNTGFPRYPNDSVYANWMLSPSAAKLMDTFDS
# test-summary: KinaseProfiler kinase assay
# Assay type: biochemical
# Protocol: This example tests the inhibitory properties of representative compounds of the invention in c-Src kinase, Aurora-A kinase, Flt3 kinase, Ret kinase and TrkA Kinase assays (see, Daniele Fancelli et al, J. Med. Chem., 2006, 49 (24), pp 7247-7251). […] The Kinase Hotspot℠ kinase assay was also used to test the compounds for IC50 or % inhibitions (Reaction Biology Corp.). Inhibitory IC50 values were determined by titration of compound at the optimal kinase concentration (Kinase EC50).
Measured inhibition at 1 µM, listed per entry.

# smiles, inhibition at 1 µM
data = [
    ("C/C=C/c1cc(Nc2cc(N3CCN(CCO)CC3)nc(Oc3cc(F)c4[nH]c(C)cc4c3F)n2)n[nH]1", "99%"),
    ("Cc1cc2c(F)c(Oc3nc(Nc4cc(C5CC5)[nH]n4)cc(N4CCN(CC(F)(F)F)CC4)n3)ccc2[nH]1", "101%"),
    ("C/C=C/c1cc(Nc2cc(N3CCN(S(C)(=O)=O)CC3)nc(Oc3ccc4[nH]c(C)cc4c3F)n2)n[nH]1", "101%"),
    ("Cc1cc2c(F)c(Oc3nc(Nc4cc(C5CC5)[nH]n4)cc(N4CCN(CCF)CC4)n3)ccc2[nH]1", "102%"),
]

====

# target-desc: Aurora-A(h) (Homo sapiens)
# Sequence (O14965 whole entry): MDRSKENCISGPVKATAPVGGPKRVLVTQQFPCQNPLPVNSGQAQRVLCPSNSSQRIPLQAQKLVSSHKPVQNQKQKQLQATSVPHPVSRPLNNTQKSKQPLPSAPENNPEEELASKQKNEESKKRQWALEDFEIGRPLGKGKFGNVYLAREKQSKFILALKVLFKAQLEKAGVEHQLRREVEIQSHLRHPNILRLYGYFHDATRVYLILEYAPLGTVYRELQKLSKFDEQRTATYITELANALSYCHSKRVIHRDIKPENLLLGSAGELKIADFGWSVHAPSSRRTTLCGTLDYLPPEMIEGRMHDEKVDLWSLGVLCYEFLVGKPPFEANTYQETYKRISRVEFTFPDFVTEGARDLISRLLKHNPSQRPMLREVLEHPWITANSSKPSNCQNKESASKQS
# test-summary: KinaseProfiler kinase assay
# Type: biochemical
# condition-label: read-out: % Inhibition @1 μM Auroro-A
Measured inhibition at 1 µM, listed per entry.

# smiles, output-unit, inhibition at 1 µM
records = [
    ("Cc1cc2c(F)c(Oc3nc(Nc4cc(C5CC5)[nH]n4)cc(N4CCN(CC(F)(F)F)CC4)n3)ccc2[nH]1", "%", 80),
    ("C/C=C/c1cc(Nc2cc(N3CCC(OC)CC3)nc(Oc3cc(F)c4[nH]c(C)cc4c3F)n2)n[nH]1", "%", 98),
    ("C/C=C/c1cc(Nc2cc(N3CCN(CCOC)CC3)nc(Oc3ccc4[nH]c(C)cc4c3F)n2)n[nH]1", "%", 85),
    ("C/C=C/c1cc(Nc2cc(N3CCN(C)CC3)nc(Oc3cc(F)c4[nH]c(C)cc4c3F)n2)n[nH]1", "%", 99),
    ("C/C=C/c1cc(Nc2cc(N3CCNCC3)nc(Oc3ccc4[nH]c(C)cc4c3F)n2)n[nH]1", "%", 99),
]

====

# target-desc: Ret(h) (Homo sapiens)
# test-summary: KinaseProfiler kinase assay
# Assay type: biochemical
Measured inhibition at 1 µM, listed per entry.

# molecule, output-unit, inhibition at 1 µM
data = [
    ("Cc1cc2c(F)c(Oc3nc(Nc4cc(C5CC5)[nH]n4)cc(N4CC(O)C4)n3)ccc2[nH]1", "%", 101),
    ("Cc1cc2c(F)c(Oc3nc(Nc4cc(C5CC5)[nH]n4)cc(N4CCOC(CN(C)C)C4)n3)ccc2[nH]1 (stereo not shown)", "%", 101),
    ("Cc1cc(Nc2cc(N3CCN(CCO)CC3)nc(Oc3cc(F)c4[nH]c(C)cc4c3F)n2)n[nH]1", "%", 101),
    ("C/C=C/c1cc(Nc2cc(N3CCN(C)CC3)nc(Oc3ccc4[nH]c(C)cc4c3F)n2)n[nH]1", "%", 98),
    ("C/C=C/c1cc(Nc2cc(N3CCC(OC)C3)nc(Oc3ccc4[nH]c(C)cc4c3F)n2)n[nH]1 (stereo not shown)", "%", 102),
    ("Cc1cc2c(F)c(Oc3nc(Nc4cc(C5CC5)[nH]n4)cc(N4CCC(F)CC4)n3)ccc2[nH]1", "%", 101),
    ("Cc1cc2c(F)c(Oc3nc(Nc4cc(C5CC5)[nH]n4)cc(N4CCN(C)CC4)n3)ccc2[nH]1", "%", 101),
]

====

# target-desc: UniProt:P35968
# Sequence (P35968 20-1356): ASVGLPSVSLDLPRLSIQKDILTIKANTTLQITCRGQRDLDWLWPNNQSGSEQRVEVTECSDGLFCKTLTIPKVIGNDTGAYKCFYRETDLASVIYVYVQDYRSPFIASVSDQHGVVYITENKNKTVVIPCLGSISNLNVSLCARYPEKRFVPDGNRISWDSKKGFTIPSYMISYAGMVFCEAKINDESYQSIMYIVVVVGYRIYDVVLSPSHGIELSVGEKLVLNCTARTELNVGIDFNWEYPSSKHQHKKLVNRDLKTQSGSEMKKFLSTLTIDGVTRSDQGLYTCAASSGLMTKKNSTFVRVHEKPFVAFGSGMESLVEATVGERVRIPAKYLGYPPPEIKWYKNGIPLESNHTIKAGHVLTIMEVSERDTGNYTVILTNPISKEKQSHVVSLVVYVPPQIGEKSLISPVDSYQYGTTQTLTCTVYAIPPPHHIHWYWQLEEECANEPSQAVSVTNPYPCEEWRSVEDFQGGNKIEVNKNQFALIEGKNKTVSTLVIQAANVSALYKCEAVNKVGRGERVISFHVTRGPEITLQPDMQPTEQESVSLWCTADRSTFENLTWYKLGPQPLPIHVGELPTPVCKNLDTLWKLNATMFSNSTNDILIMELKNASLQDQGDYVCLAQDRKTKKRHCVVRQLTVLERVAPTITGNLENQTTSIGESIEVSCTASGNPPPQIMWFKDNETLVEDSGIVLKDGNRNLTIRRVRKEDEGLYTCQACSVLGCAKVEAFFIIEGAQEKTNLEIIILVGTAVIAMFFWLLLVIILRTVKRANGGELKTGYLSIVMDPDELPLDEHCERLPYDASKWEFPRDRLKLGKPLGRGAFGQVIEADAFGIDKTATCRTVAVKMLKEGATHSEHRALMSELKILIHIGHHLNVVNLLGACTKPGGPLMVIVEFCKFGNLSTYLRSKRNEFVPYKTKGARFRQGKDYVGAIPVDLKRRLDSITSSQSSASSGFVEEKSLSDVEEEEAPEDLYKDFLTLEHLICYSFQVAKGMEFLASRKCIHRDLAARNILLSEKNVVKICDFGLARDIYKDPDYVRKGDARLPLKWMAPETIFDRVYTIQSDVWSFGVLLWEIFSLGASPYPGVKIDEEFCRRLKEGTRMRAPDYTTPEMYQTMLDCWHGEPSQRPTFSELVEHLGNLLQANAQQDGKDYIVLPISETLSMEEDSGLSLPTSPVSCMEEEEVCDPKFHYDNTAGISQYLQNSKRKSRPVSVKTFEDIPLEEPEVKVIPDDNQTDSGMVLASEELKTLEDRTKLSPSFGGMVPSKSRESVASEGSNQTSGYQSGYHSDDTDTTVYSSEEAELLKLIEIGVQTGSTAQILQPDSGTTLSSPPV
# test-summary: KinaseProfiler kinase assay
# Type: biochemical

# molecule, target-desc, inhibition at 1 µM (%)
data = [
    ("Cc1cc2c(F)c(Oc3nc(Nc4cc(C5CC5)[nH]n4)cc(N4CCOC(CN(C)C)C4)n3)ccc2[nH]1 (centres unmarked)", "UniProt:P35968", 94),
    ("Cc1cc2c(F)c(Oc3nc(Nc4cc(C5CC5)[nH]n4)cc(N4CCN(CCF)CC4)n3)ccc2[nH]1", "UniProt:P35968", 95),
    ("Cc1cc2c(F)c(Oc3nc(Nc4cc(C5CC5)[nH]n4)cc(N4CCOC(CN)C4)n3)ccc2[nH]1 (centres unmarked)", "UniProt:P35968", 95),
    ("Cc1cc(Nc2cc(N3CCOCC3)nc(Oc3cc(F)c4[nH]c(C)cc4c3F)n2)n[nH]1", "UniProt:P35968", 90),
    ("Cc1cc2c(F)c(Oc3nc(Nc4cc(C5CC5)[nH]n4)cc(N4CCOCC4)n3)ccc2[nH]1", "UniProt:P35968", 96),
    ("Cc1cc2c(F)c(Oc3nc(Nc4cc(C5CC5)[nH]n4)cc(N4CCNC(=O)C4)n3)ccc2[nH]1", "UniProt:P35968", 93),
    ("Cc1cc2c(F)c(Oc3nc(Nc4cc(C5CC5)[nH]n4)cc(N4CCN(S(C)(=O)=O)CC4)n3)ccc2[nH]1", "UniProt:P35968", 93),
    ("C/C=C/c1cc(Nc2cc(N3CCN(S(C)(=O)=O)CC3)nc(Oc3cc(F)c4[nH]c(C)cc4c3F)n2)n[nH]1", "UniProt:P35968", 96),
    ("COCCN1CCN(c2cc(Nc3cc(C4CC4)[nH]n3)nc(Oc3ccc4[nH]c(C)cc4c3F)n2)CC1", "UniProt:P35968", 89),
    ("C/C=C/c1cc(Nc2cc(N3CCN(C)CC3)nc(Oc3ccc4[nH]c(C)cc4c3F)n2)n[nH]1", "UniProt:P35968", 95),
    ("Cc1cc2c(F)c(Oc3nc(Nc4cc(C5CC5)[nH]n4)cc(N4CCNC(CO)C4)n3)ccc2[nH]1 (centres unmarked)", "UniProt:P35968", 95),
    ("C/C=C/c1cc(Nc2cc(N3CCC(OC)C3)nc(Oc3ccc4[nH]c(C)cc4c3F)n2)n[nH]1 (centres unmarked)", "UniProt:P35968", 95),
    ("C/C=C/c1cc(Nc2cc(N3CCOCC3)nc(Oc3ccc4[nH]c(C)cc4c3F)n2)n[nH]1", "UniProt:P35968", 91),
    ("C/C=C/c1cc(Nc2cc(N3CCOCC3)nc(Oc3ccc4c(cc(C)n4C)c3F)n2)n[nH]1", "UniProt:P35968", 92),
    ("C/C=C/c1cc(Nc2cc(N3CCC(N(CC)CC)C3)nc(Oc3cc(F)c4[nH]c(C)cc4c3F)n2)n[nH]1 (centres unmarked)", "UniProt:P35968", 96),
    ("Cc1cc(Nc2cc(N3CCN(CCO)CC3)nc(Oc3cc(F)c4[nH]c(C)cc4c3F)n2)n[nH]1", "UniProt:P35968", 91),
    ("Cc1cc2c(F)c(Oc3nc(Nc4cc(C5CC5)[nH]n4)cc(N4CC(O)C4)n3)ccc2[nH]1", "UniProt:P35968", 91),
    ("Cc1cc2c(F)c(Oc3nc(Nc4cc(C5CC5)[nH]n4)cc(N4CCC(O)CC4)n3)ccc2[nH]1", "UniProt:P35968", 87),
    ("C/C=C/c1cc(Nc2cc(N3CCNCC3)nc(Oc3cc(F)c4[nH]c(C)cc4c3F)n2)n[nH]1", "UniProt:P35968", 95),
    ("Cc1cc(Nc2cc(N3CCNCC3)nc(Oc3cc(F)c4[nH]c(C)cc4c3F)n2)n[nH]1", "UniProt:P35968", 95),
    ("C/C=C/c1cc(Nc2cc(N3CCN(C)CC3)nc(Oc3cc(F)c4[nH]c(C)cc4c3F)n2)n[nH]1", "UniProt:P35968", 95),
    ("Cc1cc2c(F)c(Oc3nc(Nc4cc(C5CC5)[nH]n4)cc(N4CCN(CC(F)(F)F)CC4)n3)ccc2[nH]1", "UniProt:P35968", 95),
    ("C/C=C/c1cc(Nc2cc(N3CCC(N(CC)CC)C3)nc(Oc3ccc4[nH]c(C)cc4c3F)n2)n[nH]1 (centres unmarked)", "UniProt:P35968", 96),
    ("C/C=C/c1cc(Nc2cc(N3CCC(O)CC3)nc(Oc3cc(F)c4[nH]c(C)cc4c3F)n2)n[nH]1", "UniProt:P35968", 96),
    ("C/C=C/c1cc(Nc2cc(N3CCC(O)CC3)nc(Oc3ccc4[nH]c(C)cc4c3F)n2)n[nH]1", "UniProt:P35968", 96),
    ("Cc1cc2c(F)c(Oc3nc(Nc4cc(C5CC5)[nH]n4)cc(N4CCC(N(C)C)C4)n3)ccc2[nH]1 (centres unmarked)", "UniProt:P35968", 93),
    ("CCC1CN(c2cc(Nc3cc(C4CC4)[nH]n3)nc(Oc3ccc4[nH]c(C)cc4c3F)n2)CCN1 (centres unmarked)", "UniProt:P35968", 94),
    ("C/C=C/c1cc(Nc2cc(N3CCN(C(C)=O)CC3)nc(Oc3ccc4[nH]c(C)cc4c3F)n2)n[nH]1", "UniProt:P35968", 96),
    ("Cc1cc2c(F)c(Oc3nc(Nc4cc(C5CC5)[nH]n4)cc(N4CCN(C)CC4)n3)ccc2[nH]1", "UniProt:P35968", 95),
]

This collection of values is drawn from patent US10245261B2.
